TARGET_ENTITY: BCL6 BTB domain (Homo sapiens)
ASSAY_EXPLANATION: biochemical
ASSAY_SETUP: read-out: BCL6 TR-FRET Geo Mean IC50; geometric mean of n replicates; supplement
ASSAY_METRIC: pIC50
One number for each entry, as −log10 of the molar value.

State recorded pIC50 for all listed compounds.
1. CCNc1cc(=O)[nH]c2ccc(Nc3ccnc(Cl)c3C#N)cc12
2. CN(C)c1cc(=O)[nH]c2ccc(Nc3ccnc(Cl)c3C#N)cc12

Ans:
1. 5.88
2. 5.25

---

TARGET_ENTITY: BCL6 BTB domain (Homo sapiens, UniProt P41182)
ASSAY_EXPLANATION: biochemical
ASSAY_SETUP: read-out: TR-FRET IC50, tables and figures
Description: Supplementary experimental: protein production, purification and crystallography 3C protease cleavage site. used without cleaving the tag, as a 6His was needed to bind to the anti-6His-Terbium antibody. For For both plasmid constructs described above, transformed BL21-AI E. coli cells were grown in LB carried out at 18 °C for 18 hours. Cells were harvested by centrifugation (5500 g for 30 minutes at 4 oC) and stored at -80 °C. […] The final protein was assessed for purity […] IC50 values were determined using […]
pIC50: −log10 of the molar value.
Assign class 1 to entries whose pIC50 meets or exceeds 6; assign class 0 to the rest.

Reference set (3 entries):
Cc1cnc(C(C)Nc2cc(=O)n(C)c3ccc(Nc4ccnc(Cl)c4C#N)cc23)nc1 (stereo not shown) [Compound 24a] | class 1
Cn1c(=O)cc(NCC2CC2)c2cc(Nc3cc(C(=O)O)nc(Cl)c3C#N)ccc21 [Compound 11d] | class 1
CNC(=O)[C@@H](C)Nc1cc(=O)[nH]c2ccc(Nc3ccnc(Cl)c3C#N)cc12 [Compound 12b] | class 1

Q: Determine whether this molecule has pIC50 no lower than 6: `Cn1cc(-c2cc(=O)[nH]c3ccc(Nc4ccnc(Cl)c4C#N)cc23)cn1`
Ans: class 0

Q: Form field: pIC50 at least 6? Entry: CC(Nc1cc(=O)n(CC2CC2)c2ccc(Nc3ccnc(Cl)c3C#N)cc12)c1ncccn1 (stereo not shown) [Compound 17a]
Ans: class 1

Q: Record CNC(=O)CNc1cc(=O)[nH]c2ccc(Nc3ccnc(Cl)c3C#N)cc12 [Compound 12e] ; criterion: pIC50 no lower than 6. Met?
Ans: class 0

Q: Please indicate if the recorded pIC50 for `CN1CCN(c2cc(=O)[nH]c3ccc(Nc4ccnc(Cl)c4C#N)cc23)CC1` meets or exceeds 6.
Ans: class 0

Q: Hello, I need to know if CNC(=O)C(C)Nc1cc(=O)[nH]c2ccc(Nc3ccnc(Cl)c3C#N)cc12 (stereo not shown) [Compound 12a] has measured pIC50 not below 6. Thanks!
Ans: class 1

Q: Has CC(Nc1cc(=O)n(CC2CCC2)c2ccc(Nc3ccnc(Cl)c3C#N)cc12)c1ncccn1 (stereo not shown) [Compound 17b] a recorded pIC50 greater than or equal to 6?
Ans: class 1
